Form field: Percent Obstruction (one value per entry).
# System: silver nitrate-induced arteriothromboembolia in male Wistar-Shizuoka rats
# experimental details: Test on Inhibition of Silver Nitrate-Induced Arteriothromboembolia in Rats
# Format: in vivo
# measurement setup: 1.0 mg/kg i.v.; control 88%
The reply should contain only the number, in %.

The following molecules have reported results that may help.
molecule: COC1=Nc2ccncc2/C(=C/CCCCC(=O)O)c2ccccc21 [Compound I-13E]
readout name: Percent Obstruction
result value: 75
//
molecule: CN1C(=O)c2ccncc2/C(=C\CCCCC(=O)O)c2ccccc21 [Compound I-12Z]
readout name: Percent Obstruction
result value: 0
//
molecule: C/C(=C\c1ccc(Cc2cccnc2)cc1)C(=O)O [OKY-1581, reference compound]
readout name: Percent Obstruction
result value: 67

Attention now turns to another entry.
Can you share its Percent Obstruction? I mean this molecule: O=C(O)CCCC/C=C(\c1ccccc1)c1cccnc1 [CV-4151, reference compound]
50

----------
# Tested on: silver nitrate-induced arteriothromboembolia in male Wistar-Shizuoka rats
# experimental details: Test on Inhibition of Silver Nitrate-Induced Arteriothromboembolia in Rats
# Assay type: in vivo
# measurement setup: 3.0 mg/kg i.v.; control 23/26
readout name: Number of Obstruction Case/Number of Experiments

molecule: CN1C(=O)c2ccncc2/C(=C\CCCCC(=O)O)c2ccccc21 [Compound I-12Z]
result value: 1/5

Can you share its Number of Obstruction Case/Number of Experiments? I mean this molecule: O=C(O)CCCC/C=C(\c1ccccc1)c1cccnc1 [CV-4151, reference compound]
1/5

Can you share its Number of Obstruction Case/Number of Experiments? I mean this molecule: COC1=Nc2ccncc2/C(=C/CCCCC(=O)O)c2ccccc21 [Compound I-13E]
1/5

Can you share its Number of Obstruction Case/Number of Experiments? I mean this molecule: C/C(=C\c1ccc(Cc2cccnc2)cc1)C(=O)O [OKY-1581, reference compound]
0/3

----------
Form field: Acute Toxicity (MLD) ip (one value per entry).
# System: dd male mice
# experimental details: Acute Toxicity Test (minimum lethal dose, MLD)
# Assay type: in vivo
# measurement setup: ip; dd male mice; mortality after 7 days

The following molecules have reported results that may help.
molecule: COc1ccc2c(c1)C(=CCCCCC(=O)O)c1cnccc1C(=O)N2C
measurement target: dd male mice
Acute Toxicity (MLD) ip: > 100 mg/kg

molecule: O=C(O)CCCCC=C1c2ccncc2CNc2ccccc21
measurement target: dd male mice
Acute Toxicity (MLD) ip: > 100 mg/kg

molecule: COC1=Nc2ccncc2/C(=C\CCCCC(=O)O)c2ccccc21 [Compound I-13Z]
measurement target: dd male mice
Acute Toxicity (MLD) ip: > 100 mg/kg

molecule: O=C(O)CCCC/C=C1/c2ccccc2NC(=O)c2ccncc21 [Compound I-10Z]
measurement target: dd male mice
Acute Toxicity (MLD) ip: > 100 mg/kg

Attention now turns to another entry.
Can you share its Acute Toxicity (MLD) ip? I mean this molecule: CSC1Nc2ccccc2C(=CCCCCC(=O)O)c2ccncc21 (centres unmarked)
> 100 mg/kg

----------
Form field: pIC50 (one value per entry).
# measurement target: UniProt Q2KIG5
# Sequence (Q2KIG5 1-533): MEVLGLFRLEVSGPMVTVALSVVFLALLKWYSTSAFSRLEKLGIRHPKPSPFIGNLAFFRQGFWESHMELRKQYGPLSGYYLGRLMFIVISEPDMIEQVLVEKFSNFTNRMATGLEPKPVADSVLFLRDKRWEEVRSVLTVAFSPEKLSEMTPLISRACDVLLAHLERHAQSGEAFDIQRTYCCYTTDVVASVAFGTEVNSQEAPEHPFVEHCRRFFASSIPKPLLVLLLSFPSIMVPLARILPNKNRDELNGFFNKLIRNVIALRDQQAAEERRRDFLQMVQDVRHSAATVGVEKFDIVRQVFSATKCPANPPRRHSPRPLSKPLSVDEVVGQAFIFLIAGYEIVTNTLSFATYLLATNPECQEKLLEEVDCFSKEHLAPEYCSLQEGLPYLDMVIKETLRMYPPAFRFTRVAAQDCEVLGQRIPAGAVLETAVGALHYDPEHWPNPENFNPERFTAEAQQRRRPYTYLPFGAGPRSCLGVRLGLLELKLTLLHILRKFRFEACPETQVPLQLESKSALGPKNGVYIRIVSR
Give only the number. pIC50 is defined as minus log10 of concentration in molar units.

compound: COC1=Nc2ccncc2/C(=C/CCCCC(=O)O)c2ccccc21 [Compound I-13E]
pIC50: 8.08

Field: pIC50 (UniProt Q2KIG5). Entry: O=C(O)CCCC/C=C1\c2ccccc2NC(=O)c2ccncc21 [Compound I-10E]
7.68

Field: pIC50 (UniProt Q2KIG5). Entry: O=C(O)CCCCC=C1c2cc(Br)ccc2NC(=O)c2ccncc21
7.49

Field: pIC50 (UniProt Q2KIG5). Entry: O=C(O)CCCC/C=C1\c2cnccc2NC(=O)c2ccccc21 [Compound I-14Z]
6.35

Field: pIC50 (UniProt Q2KIG5). Entry: COc1ccc2c(c1)C(=CCCCCC(=O)O)c1cnccc1C(=O)N2C
6.40

Field: pIC50 (UniProt Q2KIG5). Entry: O=C(O)CCCC/C=C1/c2cnccc2C(=O)N(Cc2ccccc2)c2ccccc21 [Compound I-11E]
8.08

Field: pIC50 (UniProt Q2KIG5). Entry: C/C=C/C1=Cc2ccccc2/C(=C/CCCCC(=O)O)c2cnccc21
7.68

Field: pIC50 (UniProt Q2KIG5). Entry: O=C(O)CCCC/C=C1/c2cnccc2NC(=O)c2ccccc21 [Compound I-14E]
7.66

Field: pIC50 (UniProt Q2KIG5). Entry: O=C(O)CCCC/C=C1\c2cnccc2C(=O)N(Cc2ccccc2)c2ccccc21 [Compound I-11Z]
7.39

Field: pIC50 (UniProt Q2KIG5). Entry: CSC1=Nc2ccccc2C(=CCCCCC(=O)O)c2cnccc21
8.30

Field: pIC50 (UniProt Q2KIG5). Entry: O=C(O)CCCCC=C1c2cnccc2CNc2ccccc21
7.66

Field: pIC50 (UniProt Q2KIG5). Entry: O=C(O)CCCCCCC=C1c2ccccc2NC(=O)c2ccncc21
6.89

Field: pIC50 (UniProt Q2KIG5). Entry: CN1C(=O)c2ccncc2/C(=C/CCCCC(=O)O)c2ccccc21 [Compound I-12E]
7.70

Field: pIC50 (UniProt Q2KIG5). Entry: CN1C(=O)c2ccncc2/C(=C\CCCCC(=O)O)c2ccccc21 [Compound I-12Z]
7.47

Field: pIC50 (UniProt Q2KIG5). Entry: CSC1=Nc2ccccc2C(=CCCCCC(=O)O)c2ccncc21
7.00

Field: pIC50 (UniProt Q2KIG5). Entry: COC1=Nc2ccncc2/C(=C\CCCCC(=O)O)c2ccccc21 [Compound I-13Z]
8.46

Field: pIC50 (UniProt Q2KIG5). Entry: O=C(O)CCCC/C=C1/c2ccccc2NC(=O)c2ccncc21 [Compound I-10Z]
7.80

Field: pIC50 (UniProt Q2KIG5). Entry: O=C(O)CCCC=C1c2ccccc2NC(=O)c2ccncc21
6.60
